- TEST DETAILS: Cytotoxicity (MTS) in CHO/CYP1B1 cells
- Format: cell-based, Chinese Hamster
- RUN PARAMETERS: Chinese hamster; text of b216; read-out: IC50, proliferation of CHO/CYP1B1 cells
Exercise: state measured IC50 at 96 h for each of the molecules provided.

# MOLECULE, ASSAY READOUT, DATA VALUE
data = [
    ("COc1ccc(-c2cc(-c3ccc4c(c3)OCO4)cc(=O)[nH]2)cc1", "IC50 at 96 h", "500 nM"),
]

So, "COc1ccc(-c2cc(-c3ccc4c(c3)OCO4)cc(=O)[nH]2)cc1OC" ? Its IC50 at 96 h was 80 nM
